assayEndpoint: melting point

compound	assayEndpoint	valueReported
CCn1c(C(C)NS(=O)(=O)c2ccc3ccc(Cl)cc3c2)cnc1Oc1cccc(N2CCN(C)CC2)c1 (stereo not drawn)	melting point	135 to 136 °C
CCn1c(C(Cc2ccc(C)cc2)NS(=O)(=O)c2ccc3c(Cl)cccc3c2)cnc1Oc1ccc(F)cc1 (stereo not drawn)	melting point	166 to 167 °C
CCC(NS(=O)(=O)c1ccc2c(Cl)cccc2c1)c1cnc(Oc2ccc(F)cc2)n1CC (stereo not drawn)	melting point	118 to 120 °C
CCn1c(C(C)NS(=O)(=O)c2ccc(Cl)c(Cl)c2)cnc1Oc1cccc(N2CCCCC2)c1 (stereo not drawn)	melting point	169.5 to 170.5 °C
CCn1c(C(C)NS(=O)(=O)c2ccc(Cl)c(Cl)c2)cnc1Oc1ccc2ccccc2c1 (stereo not drawn)	melting point	172 to 173 °C
CCn1c(C(Cc2ccccc2)NS(=O)(=O)c2ccc(Cl)c(Cl)c2)cnc1Oc1ccc(F)cc1 (stereo not drawn)	melting point	114.5 to 115.5 °C
CCCCCCC(NS(=O)(=O)c1ccc(Cl)c(Cl)c1)c1cnc(Oc2ccc(F)cc2)n1CC (stereo not drawn)	melting point	79 to 80 °C
CCn1c(C(C)NS(=O)(=O)c2ccc(Cl)c(Cl)c2)cnc1OC1CCCCC1 (stereo not drawn)	melting point	180 to 181 °C
CCn1c(C(C)NS(=O)(=O)c2ccc(Cl)c(Cl)c2)cnc1OCCCCCCN(C)C (stereo not drawn)	melting point	137.5 to 142.5 °C
CCn1c(Oc2ccc(F)cc2)nc(-c2ccccc2)c1C(C)NS(=O)(=O)c1ccc(Cl)c(Cl)c1 (stereo not drawn)	melting point	216.5 to 217.5 °C

Please look at this compound and report its melting point: CCn1c(C(C)NS(=O)(=O)c2ccc(Cl)c(Cl)c2)cnc1Oc1cccc(-n2ccnc2)c1 (stereo not drawn) 170 to 171 °C

Please look at this compound and report its melting point: CCOc1ncc(C(C)NS(=O)(=O)c2ccc(Cl)c(Cl)c2)n1CC (stereo not drawn) 195 to 196 °C

Please look at this compound and report its melting point: CCc1nc(Oc2ccc(F)cc2)n(CC)c1C(C)NS(=O)(=O)c1ccc(Cl)c(Cl)c1 (stereo not drawn) 122 to 124 °C

----------
# systemName: human Edg-1 (S1P1) (Homo sapiens)
# Construct: expressed in transfected cells; host or cells: HEK-293
# Sequence (P21453 whole entry): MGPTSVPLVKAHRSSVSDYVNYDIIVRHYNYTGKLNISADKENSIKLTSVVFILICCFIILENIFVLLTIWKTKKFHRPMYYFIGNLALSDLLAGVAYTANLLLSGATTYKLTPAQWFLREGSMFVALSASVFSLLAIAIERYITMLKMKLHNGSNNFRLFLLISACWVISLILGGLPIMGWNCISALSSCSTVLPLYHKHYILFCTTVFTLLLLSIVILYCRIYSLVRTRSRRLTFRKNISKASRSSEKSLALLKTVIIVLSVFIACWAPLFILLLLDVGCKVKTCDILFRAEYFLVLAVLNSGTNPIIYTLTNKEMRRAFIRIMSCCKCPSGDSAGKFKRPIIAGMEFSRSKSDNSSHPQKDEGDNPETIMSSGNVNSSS
# assayProtocol: S1P1 binding inhibition test (membrane, [33P]-S1P)
# measurementParameters: compound 10 μM; [33P]-S1P 0.1 nM; human Edg-1 (S1P1) HEK-293 membrane fraction; read-out: Binding test (membrane) % inhibition (10 μM)
assayEndpoint: inhibition at 10 µM (%)

molecule	systemName	inhibition at 10 µM / %
CCn1c(C(C)NS(=O)(=O)c2ccc(C#N)cc2)cnc1Oc1ccc(C)cc1 (stereo not drawn)	human Edg-1 (S1P1) (Homo sapiens)	89.3
CCn1c(C(C)NS(=O)(=O)c2ccc(Cl)c(Cl)c2)cnc1OCc1ccccc1 (stereo not drawn)	human Edg-1 (S1P1) (Homo sapiens)	90.7
CCn1c(C(Cc2ccc(C)cc2)NS(=O)(=O)c2ccc(Cl)c(Cl)c2)cnc1Oc1ccc(F)cc1 (stereo not drawn)	human Edg-1 (S1P1) (Homo sapiens)	88.9

----------
Observed IC50, system human Edg-1 (S1P1) (Homo sapiens, UniProt P21453).

molecule	systemName	valueReported
CCn1c(C(C)NS(=O)(=O)c2ccc(Cl)c(Cl)c2)cnc1Oc1ccc(OCCN2CCOCC2)cc1 (stereo not drawn)	human Edg-1 (S1P1) (Homo sapiens, UniProt P21453)	≤ 70 nM
CCn1c(C(C)NS(=O)(=O)c2ccc(Cl)c(Cl)c2)cnc1Oc1cccc(N2CCCCC2)c1 (stereo not drawn)	human Edg-1 (S1P1) (Homo sapiens, UniProt P21453)	≤ 15 nM

Could you now look at the following molecule, please?
System human Edg-1 (S1P1) (Homo sapiens, UniProt P21453). Read-out IC50. Item CCn1c(C(C)NS(=O)(=O)c2ccc3cccc(Cl)c3c2)cnc1Oc1cccc(N2CCN(C)CC2)c1 (stereo not drawn) . Report value. ≤ 15 nM
